This collection of values is drawn from ChEMBL document CHEMBL3433997.

target: Glucose transporter (Leishmania mexicana); experiment: ST_JUDE_LEISH: Cytotoxicity at 2uM final concentration against transgenic Leishmania Mexicana promastigotes LmGT2 that are glucose transport deficient and complemented with the L. Mexicana glucose transporter 2. Activity is measured by DNA content using SYBR green in vitro; assay type: functional
Please respond with reported inhibition for every item in the list.
Expressed in %, but write only the number.

Consider the compound shown here: FC(F)(F)c1cccc(CNCC2CCN(Cc3ccc4c(c3)OCO4)CC2)c1 What is its recorded inhibition?
12.3

// returns reported inhibition for input CC1(C)NC(N)=NC(=N)N1OCCNCc1ccc(Cl)cc1
3.92

State the recorded inhibition for this entry: O=C(Nc1ccc(OC2CCN(Cc3ccsc3)C2)c(Cl)c1)c1ccc(F)cc1 (stereo not given)
0.32

inhibition for Cc1onc(-c2ccccc2)c1-c1nc(NCCC(c2ccccc2)c2ccccc2)no1 ?
6.9

Name the recorded inhibition for c1ccc(CN2CCN(CCNc3c4ccccc4nc4ccccc34)CC2)cc1 .
12.9

// query inhibition value for entry CCOc1ccccc1C1C(C(=O)C(C)(C)C)N2c3ccc(Br)cc3C=CC2C12C(=O)c1ccccc1C2=O (stereo not given)
57.1

So what does the record say about inhibition for CCN(CCCN1CCCC1)c1cc(C)nc(Nc2ccc(Cl)cc2)n1 ?
-0.13

Would you mind telling me what inhibition value was observed for O=C(Nc1cccnc1)c1cc(-c2cc(Cl)ccc2O)n[nH]1 ?
3.15

Would you mind telling me what inhibition value was observed for COc1cc2nc(NCCc3ccccc3)nc(N(C)Cc3ccccc3)c2cc1OC ?
2.95

Give the measured inhibition of CC(=O)Nc1ccc(C#Cc2ccc(-c3c(C)[nH]c(C)c(Cl)c3=O)cc2)cc1 .
1.24

----------
molecular target: Solute carrier family 2, facilitated glucose transporter member 1 (Homo sapiens) (UniProt P11166); experiment: ST_JUDE_LEISH: Cytotoxicity at 2uM final concentration against transgenic Leishmania Mexicana promastigotes LmGLUT1 that are glucose transport deficient and complemented with the human glucose transporter GLUT1. Activity is measured by DNA content using SYBR green in vitro; type: functional
Sequence (P11166 whole entry): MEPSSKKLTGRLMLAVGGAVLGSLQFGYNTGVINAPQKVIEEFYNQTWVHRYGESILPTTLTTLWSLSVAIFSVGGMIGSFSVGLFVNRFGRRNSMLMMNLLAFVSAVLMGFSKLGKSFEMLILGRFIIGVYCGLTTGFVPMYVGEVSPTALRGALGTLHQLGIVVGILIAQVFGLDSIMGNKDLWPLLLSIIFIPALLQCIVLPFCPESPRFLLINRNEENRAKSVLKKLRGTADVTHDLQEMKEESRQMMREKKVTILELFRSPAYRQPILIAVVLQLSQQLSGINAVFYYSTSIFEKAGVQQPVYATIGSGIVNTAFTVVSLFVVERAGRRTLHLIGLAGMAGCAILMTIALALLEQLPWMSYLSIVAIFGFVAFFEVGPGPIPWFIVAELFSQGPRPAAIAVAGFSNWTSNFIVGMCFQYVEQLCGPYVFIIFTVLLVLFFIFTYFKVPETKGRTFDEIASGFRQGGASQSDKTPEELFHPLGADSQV
MEASURED_ENDPOINT: inhibition (%)
Write the answer as a number in %, unit excluded.

Item under review: Clc1ccc(Nc2nc(NCc3ccccc3)nc(N/N=C/c3ccccn3)n2)cc1 . Reported inhibition?
83.7

inhibition lookup needed for C=CCc1cc(C2CCN(CCCCNC(=O)c3ccc(-c4ccc(C#N)cc4)cc3)CC2)c(OCC(N)=O)c2c1CCCC2 , thanks.
0.81

Can you look up the measured inhibition of COc1cccc(O)c1CN1CCC2(CCCN(Cc3ccc(F)cc3)C2)C1 (stereo unspecified) for me?
1.04

For the compound shown here, CN(C)c1ccc(NC(=O)Nc2ccnc3ccccc23)cc1Br , give the reported inhibition.
8.81

Given the compound O=C(c1cccc(-c2noc(C(F)(F)F)n2)c1)N1CCN(c2nsc3ccccc23)CC1 , what is its reported inhibition?
-0.16

Give its inhibition value. Item: CC(C)Nc1ccc(Nc2ccnc3cc4ccccc4cc23)cc1
1.19

----------
target: Hexose transporter 1 (Plasmodium falciparum); experiment: ST_JUDE_LEISH: Cytotoxicity at 2uM final concentration against transgenic Leishmania Mexicana promastigotes LmPfHT that are glucose transport deficient and complemented with the Plasmodium falciparum hexose transporter. Activity is measured by DNA content using SYBR green in vitro; type: functional
MEASURED_ENDPOINT: inhibition (%)
The reply should be a number in %, with the unit left off.

Could you tell me which inhibition is on file for CC(CCc1ccccc1)NCC(O)c1ccc2c3c(cccc13)C(=O)N2C (stereo not given) ?
0.34

Need inhibition of Cc1cc(I)ccc1Nc1nc2nonc2nc1Nc1ccc(I)cc1C , thanks.
9.02

Requested read-out: inhibition. Entry: CCOC(=O)c1nc(-c2ccc(Cl)cc2)[nH]c1NC(=S)NCCCN1CCOCC1
1.52

Reported inhibition, molecule COc1ccc2nc(C)cc(N/N=C/c3cccc([N+](=O)[O-])c3)c2c1 : ____
7.38

Entry Cc1ccc(C(=O)Nc2cccc(CN3CCCN(Cc4ccc(O)cc4)CC3)c2)cc1 : reported inhibition = ?
0.24

# inhibition lookup, item O=C(O)c1cc(C(F)(F)F)co1
-1.54

Please look up its inhibition: O=C(Nc1ccccc1)N1CCC(CN2CCOC(c3ccccc3)(c3ccccc3)C2)CC1
4.78

Could you tell me which inhibition is on file for Cc1cccc2nc(-c3cccc(-c4cccc(NC(=O)CNC(=O)c5ccc(O)cc5)c4)c3)[nH]c12 ?
-0.56

May I ask what inhibition has been recorded for CCOC(=O)c1cc(C(=O)NCCCCN2CCC(c3ccc4c(c3OC)CCCC4)CC2)ccc1-c1ccc(C(F)(F)F)cc1 ?
4.37

What value of inhibition has been reported for the following molecule? O=C(Nc1ccc(Cl)c(C(F)(F)F)c1)Nc1ccc(Cl)c(C(F)(F)F)c1
1.04

Give the measured inhibition of CNC(=O)CNC(=O)COc1cccc2ccccc12 .
1.21

Which inhibition is reported for this molecule? COc1ccccc1Cc1c(C)nc2nc(N)nc(N)c2c1C
4.07

Entry CCc1cc(NC(=O)Nc2ccnc3ccccc23)ccc1OC : reported inhibition = ?
17.9

Name the recorded inhibition for CN1CCCc2ccc(NC(=O)Nc3ccc(-c4ccccc4)cc3)cc2C1 .
0.82

I am curious: what inhibition value has been reported for Cc1cc(N[C@@H](CC(C)C)C(=O)NCCOc2ccccc2)nc(Nc2ccccc2)n1 ?
2.42

Any idea what its inhibition is? The molecule is CC(C)C[C@H](NC(=O)c1cc(-c2ccc(F)cc2)no1)C(=O)O.CC(C)C[C@H](NC(=O)c1conc1-c1ccc(F)cc1)C(=O)O
2.32

Bench note: what inhibition did O=C(Nc1ccc(C(F)(F)F)cc1)c1ccc(S(=O)(=O)NC2CCN(Cc3ccccc3)C2)cc1 (stereo not given) show?
5.18

Fill in the blank: the reported inhibition of CC(C)(C)c1ccc(C(=O)Nc2cccc(Nc3c(C(=O)NCc4cccc(C(F)(F)F)c4)cnc4c(O)cccc34)c2)cc1 is ____.
8.9

Need inhibition, item O=C(Nc1ccc(Cn2ncc(N3CCCNCC3)c(Cl)c2=O)cc1)Nc1ccc(C(F)(F)F)cc1
4.5

Returns the measured inhibition for the input molecule. Input: COc1ccccc1C1CN(Cc2coc3ccccc3c2=O)Cc2ccccc2O1 (stereo not given)
0.56

----------
molecular target: Solute carrier family 2, facilitated glucose transporter member 1 (Homo sapiens); assay: ST_JUDE_LEISH: Cytotoxicity at 2uM final concentration against transgenic Leishmania Mexicana promastigotes LmGLUT1 that are glucose transport deficient and complemented with the human glucose transporter GLUT1. Activity is measured by DNA content using SYBR green in vitro; type: functional
MEASURED_ENDPOINT: inhibition
Kindly format the answer as number then unit.

Given COc1cc(Cc2cnc(N)nc2N)cc(OCCCCc2nnn[nH]2)c1OC , state its recorded inhibition.
-0.47%

# input molecule: CCc1cn(CC(=O)N(CCOc2ccc(-c3ccc(C(F)(F)F)cc3)cc2)CCN(CC)CC)c(SCc2ccc(F)cc2)nc1=O ; wanted: its inhibition
0.38%

Which inhibition value is on record for Oc1ccc(CCNc2nc(NCc3ccccc3-c3ccc(C(F)(F)F)cc3)nc(N3CCNCC3)n2)cc1 ?
1.66%

Which inhibition reading was recorded for the molecule CN(CCN(C)CC(O)c1ccc(Cl)c(Cl)c1)CC(O)c1ccc(Cl)c(Cl)c1 (centres undefined) ?
11.5%

Data request, read-out inhibition, for Cc1cc(N)c2cc(NC(=O)c3ccc4ccccc4c3)ccc2n1
3.68%

Find the recorded inhibition belonging to C[C@@H](C(=O)N1CCOCC1)N1CC[C@H](NS(=O)(=O)c2ccc3ccnc(N)c3c2)C1=O and report it.
-1.02%

Return reported inhibition; argument: NC(=O)C1CCN(Cc2ccc(-c3ccc(-c4nc5cc(F)ccc5[nH]4)cc3)cc2)CC1
12.7%

Query (molecule): CCCCCCN1CCC(CNCc2cccc(Cl)c2)CC1 ; field requested: inhibition
1.66%

Look at this molecule and give its reported inhibition. Cc1noc(C)c1-c1cccc(CNCc2cccc(-c3cccc(-c4nc5cc(F)ccc5[nH]4)c3)c2)c1
-2.23%

----------
molecular target: Hexose transporter 1 (Plasmodium falciparum) (UniProt O97467); test: ST_JUDE_LEISH: Cytotoxicity at 2uM final concentration against transgenic Leishmania Mexicana promastigotes LmPfHT that are glucose transport deficient and complemented with the Plasmodium falciparum hexose transporter. Activity is measured by DNA content using SYBR green in vitro; assay type: functional
MEASURED_ENDPOINT: inhibition (%)
// note: answer is a bare numeric in %

Reported inhibition, compound COc1cc2nc(NCCn3nc(C)cc3C)nc(NCCc3ccccc3)c2cc1OC : ____
5.15

Which value of inhibition has been reported for CCCCCCP(=O)(COc1ccc(CCN(CC(O)COc2cccc3[nH]c(C(N)=O)cc23)CC(O)COc2cccc3[nH]c(C(N)=O)cc23)cc1)OCCCC (centres undefined) in the records?
8.1

Look at this compound and give its reported inhibition. Cn1cncc1C(=O)Nc1cccc(-c2ccc(-c3nc4cc(C(F)(F)F)ccc4[nH]3)cc2)c1
6.73

Need inhibition, item Cn1nc(C(F)(F)F)c(-c2ccc(Br)cc2)c1NC(=O)Nc1ccc(F)cc1F
1.19

Fill in the blank: the reported inhibition of Cc1cc(=O)oc2c1ccc1oc(C(O)c3ccc(Cl)cc3)c(C)c12 (centres undefined) is ____.
0.59

Entry CC(C)c1ccc(CN2CCC(CNC(=O)c3cc(-c4ccccc4F)cs3)C2)cc1 (centres undefined) : reported inhibition = ?
4.88

Please report the recorded inhibition for CC(C)NCc1cccc(-c2cccc(-c3nc4cc(F)ccc4[nH]3)c2)c1 .
11.4

I am curious: what inhibition value has been reported for O=C(/C=C/c1cccc(OC(F)(F)F)c1)NCCCCCN1CCC(c2c[nH]c3ccccc23)CC1 ?
0.75

Requested field: inhibition. Item: c1cc(-c2ccc(CNCCCN3CCOCC3)cc2)cc(-c2nc3ccccc3[nH]2)c1
-0.33

Using the record for O=C(Nc1ccc(Cl)c(C(F)(F)F)c1)N[C@H]1CCN(CCCCCNC(=O)C2CC2c2ccc(Cl)c(Cl)c2)C1 (some centres undefined) , report its inhibition.
1.02

Which value of inhibition has been reported for CCN(CC)CCCC(C)N/C(=N\c1ccccc1Br)Nc1ccc(C#N)cc1O (centres undefined) in the records?
0.06

Given the entry Cc1sc2nc(CSc3ccccc3)nc(N3CCN(CC(=O)NC4CC4)CC3)c2c1C , report its measured inhibition.
-2.01

Suppose we examine the compound COc1cc2nc(NCCc3ccccc3)nc(NCc3ccc(C#N)cc3)c2cc1OC ; what inhibition value has been reported?
6.39

What value of inhibition has been recorded for this entry: N#Cc1ccc2c(c1)CCN(CCC1CCC(NC(=O)/C=C/c3cc(Br)cs3)CC1)CC2 (centres undefined)
2.93

Query (compound): O=C(NCc1ccc(F)cc1)Nc1ccc(-c2cccc(-c3nc4cc(F)ccc4[nH]3)c2)cc1 ; field requested: inhibition
6.92

// lookup inhibition for CCN(CC)CCN(Cc1ccc(-c2ccc(C(F)(F)F)cc2)cc1)C(=O)Cn1c(CCc2cccc(F)c2F)nc(=O)c2cc(F)c(F)cc21
7.63

Name the recorded inhibition for N#Cc1ccc(CN2CCC(Oc3ccc(NC(=O)c4ccco4)cc3Cl)C2)cc1 (centres undefined) .
0.89

GET /values?readout=inhibition&item= O=C(Nc1cccc(OC2CCN(Cc3ccccc3)CC2)c1)c1ccc([N+](=O)[O-])cc1
4.94

Entry under review: CC(=NNC(S)=NCc1ccco1)c1ccccn1 . Reported inhibition?
1.81
